Value source: paper PMC9021956

Overview of recorded inhibition at 5 µM for various molecules
TGT: HLA-A2402 (Homo sapiens, UniProt P04439, D101N/D140Y/D185E/E176V/E190D/F33S/G103R/G107R/I119L/I121M/I306V/K335N/L105A/L180Q/L300P/N151K/N90K/Q86E/Q94H/R106L/R138H/R89G/T104I/T345S/V100E/W191G/Y123F)
TEST SUMMARY: cell-based
Type: binding
ASSAY CONDITIONS: HLA-A2402 HMy2.CIR cells; competitor peptide 5μM; 24 hours; flow cytometry
Residues, ends and D or L forms follow the SMILES beside them.
QUANTITY NAME: inhibition at 5 µM (%)

- CC[C@H](C)[C@H](NC(=O)[C@H](Cc1c[nH]c2ccccc12)NC(=O)[C@@H](NC(=O)CNC(=O)[C@H](Cc1ccccc1)NC(=O)[C@H](CO)NC(=O)[C@@H](NC(=O)[C@H](CC(C)C)NC(=O)[C@@H](N)Cc1ccc(O)cc1)C(C)C)C(C)C)C(=O)O [Epitope P11]: 41
- CSCC[C@H](NC(=O)[C@H](CC(N)=O)NC(=O)[C@@H](NC(=O)[C@H](CC(N)=O)NC(=O)[C@@H](NC(=O)[C@H](Cc1ccc(O)cc1)NC(=O)[C@@H](N)CO)C(C)C)[C@@H](C)O)C(=O)NCC(=O)N[C@@H](CC(C)C)C(=O)O [Epitope P22] (H-SYVNTNMGL-OH; N-terminus and C-terminus assumed): 72.2

###

TGT: HLA-A3303 (Homo sapiens, UniProt P04439, A270S/D185E/E176V/E277Q/E87N/F33T/G231S/H175R/I121M/I218V/I322F/K168Q/L300P/L318F/M331R/P217A/Q86R/Q94H/R138Q/T323A/T345S/T97I/V358M)
Construct: expressed in transfected cells; host or cells: HMy2.CIR
TEST SUMMARY: cell-based
Format: binding
ASSAY CONDITIONS: HLA-A3303 HMy2.CIR cells; competitor peptide 15μM; 24 hours; flow cytometry; read-out: 15μM Inhibition (%)
Method: HMy2.CIR cell line was purchased (Zhongqiao xinzhou Biotech, Shanghai) and maintained in complete IMDM medium with 10% FCS and 1% penicillin/streptomycin. […] The plate was centrifuged at 600 rpm for 5 min at room temperature (RT). […] Finally, cells were resuspended with 150 μL PBS and analyzed with flow cytometry. […] Binding affinity of unlabeled peptide with the indicated HLA-A molecule is assessed by IC50.
Residues, ends and D or L forms follow the SMILES beside them.
Rule: inhibition at 15 µM of 10% or more gives Fulfilled; anything lower gives Not fulfilled.

- CC[C@H](C)[C@H](NC(=O)[C@H](Cc1c[nH]c2ccccc12)NC(=O)[C@@H](NC(=O)CNC(=O)[C@H](Cc1ccccc1)NC(=O)[C@H](CO)NC(=O)[C@@H](NC(=O)[C@@H](N)CC(C)C)C(C)C)C(C)C)C(=O)N[C@@H](CCCNC(=N)N)C(=O)O [Epitope P4]: Fulfilled
- CC(C)C[C@H](N)C(=O)N[C@@H](Cc1ccc(O)cc1)C(=O)N[C@@H](CO)C(=O)N[C@@H](CO)C(=O)N[C@H](C(=O)N[C@H](C(=O)N1CCC[C@H]1C(=O)N[C@@H](CS)C(=O)N[C@@H](Cc1ccccc1)C(=O)O)C(C)C)[C@@H](C)O [Epitope P55] (H-LYSSTVPCF-OH; N-terminus and C-terminus assumed): Not fulfilled
- CC[C@H](C)[C@H](NC(=O)CNC(=O)[C@H](CC(C)C)NC(=O)[C@H](CO)NC(=O)[C@H](CC(C)C)NC(=O)[C@H](CC(C)C)NC(=O)[C@@H](N)Cc1ccccc1)C(=O)N[C@@H](Cc1c[nH]cn1)C(=O)N[C@@H](CC(C)C)C(=O)O [Epitope P10]: Fulfilled
- CSCC[C@H](NC(=O)[C@H](Cc1c[nH]c2ccccc12)NC(=O)[C@H](CCCNC(=N)N)NC(=O)[C@H](Cc1ccc(O)cc1)NC(=O)CNC(=O)[C@@H]1CCCN1C(=O)[C@@H](N)CS)C(=O)N[C@@H](CS)C(=O)N[C@@H](CC(C)C)C(=O)N[C@@H](CCCNC(=N)N)C(=O)O [Epitope P77] (H-CPGYRWMCLR-OH; N-terminus and C-terminus assumed): Fulfilled
- CC[C@H](C)[C@H](N)C(=O)N[C@@H](CC(C)C)C(=O)N[C@@H](CS)C(=O)N[C@@H](Cc1c[nH]c2ccccc12)C(=O)NCC(=O)N[C@@H](CCC(=O)O)C(=O)N[C@@H](CC(C)C)C(=O)N[C@@H](CCSC)C(=O)N[C@@H](CC(N)=O)C(=O)N[C@@H](CC(C)C)C(=O)O [Epitope P74] (H-ILCWGELMNL-OH; N-terminus and C-terminus assumed): Not fulfilled
- CC[C@H](C)[C@H](NC(=O)[C@H](Cc1c[nH]c2ccccc12)NC(=O)[C@@H](NC(=O)CNC(=O)[C@H](Cc1ccccc1)NC(=O)[C@H](CO)NC(=O)[C@@H](NC(=O)[C@H](CC(C)C)NC(=O)[C@@H](N)Cc1ccc(O)cc1)C(C)C)C(C)C)C(=O)O [Epitope P11]: Not fulfilled
- CC(C)C[C@H](NC(=O)[C@@H](N)Cc1ccccc1)C(=O)N[C@@H](Cc1c[nH]c2ccccc12)C(=O)N[C@@H](CCC(=O)O)C(=O)N[C@@H](Cc1c[nH]c2ccccc12)C(=O)N[C@@H](C)C(=O)N[C@@H](CO)C(=O)N[C@H](C(=O)N[C@@H](CCCNC(=N)N)C(=O)O)C(C)C [Epitope P78] (H-FLWEWASVR-OH; N-terminus and C-terminus assumed): Fulfilled
- CC(C)C[C@H](NC(=O)[C@@H](N)Cc1ccccc1)C(=O)N1CCC[C@H]1C(=O)N[C@@H](CO)C(=O)N[C@@H](CC(=O)O)C(=O)N[C@@H](Cc1ccccc1)C(=O)N[C@@H](Cc1ccccc1)C(=O)N1CCC[C@H]1C(=O)N[C@@H](CO)C(=O)O [Epitope P67] (H-FLPSDFFPS-OH; N-terminus and C-terminus assumed): Not fulfilled

###

TGT: HLA-A1101 (Homo sapiens, UniProt P04439, A114D/D185E/E176A/F33Y/L180Q/S129P/T187R)
Construct: expressed in transfected cells; host or cells: HMy2.CIR
TEST SUMMARY: cell-based
Assay type: binding
ASSAY CONDITIONS: HLA-A1101 HMy2.CIR cells; competitor peptide 15μM; 24 hours; flow cytometry; read-out: 15μM Inhibition (%)
Residues, ends and D or L forms follow the SMILES beside them.
Overview of recorded inhibition at 15 µM for various molecules
QUANTITY NAME: inhibition at 15 µM (%)

- CC(C)C[C@H](NC(=O)[C@@H](NC(=O)[C@H](CCC(N)=O)NC(=O)[C@H](Cc1c[nH]cn1)NC(=O)[C@H](C)NC(=O)[C@H](CC(N)=O)NC(=O)[C@@H](NC(=O)[C@@H](N)[C@@H](C)O)C(C)C)C(C)C)C(=O)N1CCC[C@H]1C(=O)N[C@@H](CCCCN)C(=O)O [Epitope P48] (H-TVNAHQVLPK-OH; N-terminus and C-terminus assumed): 91
- CC(C)C[C@H](NC(=O)[C@H](CCCCN)NC(=O)[C@H](Cc1c[nH]cn1)NC(=O)[C@H](CCCNC(=N)N)NC(=O)[C@H](CS)NC(=O)CNC(=O)CNC(=O)[C@H](CC(C)C)NC(=O)[C@@H](N)C(C)C)C(=O)O [Epitope P36] (H-VLGGCRHKL-OH; N-terminus and C-terminus assumed): 20.6
- CC[C@H](C)[C@H](NC(=O)CNC(=O)[C@H](CC(C)C)NC(=O)[C@H](CO)NC(=O)[C@H](CC(C)C)NC(=O)[C@H](CC(C)C)NC(=O)[C@@H](N)Cc1ccccc1)C(=O)N[C@@H](Cc1c[nH]cn1)C(=O)N[C@@H](CC(C)C)C(=O)O [Epitope P10]: 8

###

Overview of recorded inhibition at 15 µM for various compounds
TGT: HLA-A1101 (Homo sapiens, UniProt P04439, A114D/D185E/E176A/F33Y/L180Q/S129P/T187R)
Construct: expressed in transfected cells; host or cells: HMy2.CIR
TEST SUMMARY: cell-based
Format: binding
ASSAY CONDITIONS: HLA-A1101 HMy2.CIR cells; competitor peptide 15μM; 24 hours; flow cytometry; read-out: 15μM Inhibition (%)
Description: HMy2.CIR cell line was purchased (Zhongqiao xinzhou Biotech, Shanghai) and maintained in complete IMDM medium with 10% FCS and 1% penicillin/streptomycin. […] The plate was centrifuged at 600 rpm for 5 min at room temperature (RT). […] Finally, cells were resuspended with 150 μL PBS and analyzed with flow cytometry. […] Binding affinity of unlabeled peptide with the indicated HLA-A molecule is assessed by IC50.
Residues, ends and D or L forms follow the SMILES beside them.
QUANTITY NAME: inhibition at 15 µM (%)

- CC[C@H](C)[C@H](NC(=O)[C@H](Cc1c[nH]c2ccccc12)NC(=O)[C@@H](NC(=O)CNC(=O)[C@H](Cc1ccccc1)NC(=O)[C@H](CO)NC(=O)[C@@H](NC(=O)[C@@H](N)CC(C)C)C(C)C)C(C)C)C(=O)N[C@@H](CCCNC(=N)N)C(=O)O [Epitope P4]: 36
- CC(C)C[C@H](NC(=O)[C@H](Cc1ccccc1)NC(=O)[C@H](C)NC(=O)[C@H](CCCCN)NC(=O)[C@H](Cc1ccc(O)cc1)NC(=O)[C@@H](NC(=O)[C@@H]1CCCN1)[C@@H](C)O)C(=O)N[C@@H](CS)C(=O)N[C@@H](CCCCN)C(=O)O [Epitope P16] (H-PTYKAFLCK-OH; N-terminus and C-terminus assumed): 79.2
